test system: SNB-19 CNS; assay: NCI tumour cell line growth inhibition, 48 h; in the data active means GI50 below about 0.43 µM; inactive means the rest
Labels: 1 (active), -1 (inactive)

| structure.smiles | discrete.label |
| --- | --- |
| Cc1cc(Nc2nc(N[C@@H](C)c3ncc(F)cn3)ncc2Cl)n[nH]1 | -1 |
| CC(=O)c1cc(C(=O)c2ccc3c(c2)Sc2ccccc2N3)n2ccccc12 | 1 |
| N#Cc1cnc(Nc2cc(NC[C@H]3CNCCO3)c(C(F)(F)F)cn2)cn1 | -1 |
| CC(=O)[CH-]C(=O)c1ccccc1.CC(=O)[CH-]C(=O)c1ccccc1.O=S(=O)([O-])c1cc([O-])c2c([O-])cc(S(=O)(=O)[O-])cc2c1.[Na+].[Zr+4] | -1 |

----------
system: SNB-75 CNS; assay: NCI tumour cell line growth inhibition, 48 h

| molecule | assay.target | TGI |
| --- | --- | --- |
| COC(=O)C1C(=O)O[C@@H](c2cc(OC)c(OC)cc2OC)C1C(=O)OC (mixture of isomers) | SNB-75 CNS | > 100 µM |
| COc1c(-c2ccccc2)nc2ccc(Oc3ccccc3)nn12 | SNB-75 CNS | > 100 µM |
| Cc1cc(Nc2cc(N3CCN(C)CC3)nc(/C=C/c3ccccc3)n2)n[nH]1 | SNB-75 CNS | 2.12 µM |
| CC(C)C1NC(=O)CC(c2ccccc2)N(N=O)C1c1ccccc1 (stereo unspecified) | SNB-75 CNS | > 100 µM |
| CN1CCN(C(=O)COc2ccc(/C=C3\CC4C5CC=C6CC(Cl)CCC6(C)C5CCC4(C)C3=O)cc2)CC1 (stereo unspecified) | SNB-75 CNS | 56.7 µM |
| O=Cc1cc(C(=O)OCc2ccccc2)n(S(=O)(=O)c2ccccc2)c1 | SNB-75 CNS | 82.1 µM |
| O=C(O)C1[O][Sb][O]C(C(=O)O)C1O (stereo unspecified) | SNB-75 CNS | > 100 µM |
| Nc1ccccc1C(=O)CCC1C(=O)NC(=S)NC1=O | SNB-75 CNS | > 89.6 µM |
| O=C1O/C(=C/c2ccccc2)C(c2ccccc2)=C1O | SNB-75 CNS | > 100 µM |
| O=C1c2ccccc2C2CCC1c1ccccc12 (stereo unspecified) | SNB-75 CNS | > 100 µM |
| Cc1cc(C)c(-c2c(N)cc(Br)cc2Br)c(N)c1 | SNB-75 CNS | 10.1 µM |

----------
The entries below are paired with their reported TGI.
test system: HT29 colon; assay: NCI tumour cell line growth inhibition, 48 h

| molecule | TGI |
| --- | --- |
| Clc1cccc(-c2nnc(-c3nn(-c4ccccc4)c4nc5ccccc5nc34)o2)c1 | > 100 µM |
| C=CCC(N[C@@H](CO)c1ccccc1)c1cn(C(=O)OCC)c2ccccc12 (some centres undefined) | 62.7 µM |
| COC1CC(OC2C(C)OC(OC3C(C)OC(OC4C(C)OC(O[C@H]5CC[C@@]6(C)C(=CC[C@]7(O)[C@@H]6C[C@@H](OC(C)=O)[C@@]6(C)[C@]7(O)CC[C@@]6(O)C(C)=O)C5)CC4OC)CC3OC)CC2OC)OC(C)C1O (some centres undefined) | > 25 µM |
| CC(=O)O[C@H]1C(=O)[C@@]2(C)[C@H]([C@H](OC(=O)c3ccccc3)[C@]3(O)C[C@H](OC(=O)[C@H](O)[C@@H](NC(=O)c4ccco4)c4ccccc4)C(C)=C1C3(C)C)[C@]1(OC(C)=O)CO[C@@H]1C[C@@H]2O | > 12.5 µM |
| Clc1ccc(CCN[C@H]2CCCC[C@H]2N2CCCC2)cc1Cl | 49.9 µM |
| COc1cc(OC)cc(-c2cc(=O)c3cc4c(cc3[nH]2)OCO4)c1 | > 100 µM |
| COC(=O)c1cc(NC(=O)Cc2c[nH]c3ccccc23)cn1C | > 100 µM |
| Cc1cc(C)c(-c2c(N)cc(Br)cc2Br)c(N)c1 | 13.1 µM |
| C/C=C1\CN2CCc3c([nH]c4ccccc34)C2CC1CCO (centres undefined) | > 100 µM |

----------
test system: SF-268 CNS; experiment: NCI tumour cell line growth inhibition, 48 h; in the data active means GI50 below about 0.43 µM; inactive means the rest
Labels: active, inactive

| molecule | discrete.label |
| --- | --- |
| N/N=C(/Cc1nc2ccc(C(=O)c3ccccc3)cc2[nH]c1=O)C(=O)Nc1ccc([N+](=O)[O-])cc1[N+](=O)[O-] | inactive |
| CCN(CC)CCCC(C)N/C(=C1\C(=O)NC(=O)\C1=C(/NC(C)CCCN(CC)CC)c1cccc(OC)c1)c1cccc(OC)c1 (configuration not stated) | inactive |
| CC(=O)[C@H]1CCC2[C@@H]3CC=C4C[C@@H]([O-])CC[C@]4(C)C3CC[C@@]21C.CC(=O)[C@H]1CCC2[C@@H]3CC=C4C[C@@H]([O-])CC[C@]4(C)C3CC[C@@]21C.CC(=O)[CH-]C(=O)c1ccccc1.CC(=O)[CH-]C(=O)c1ccccc1.Cl.[Ti+4] (some centres not stated) | inactive |
| Cn1cc(-c2cnn3c(N)c(Br)c(C4CCCNC4)nc23)cn1 (configuration not stated) | inactive |
| COc1ccc(/C=C2/SC(Nc3nc(-c4nc(NC5=NC(=O)/C(=C\c6ccc(OC)cc6)S5)sc4C)c(C)s3)=NC2=O)cc1 | inactive |
| O=C(O)C1[O][Sb][O]C(C(=O)O)C1O (configuration not stated) | inactive |
| CC(C)COc1nc2c(c(=O)n(C)c(=O)n2C)n1C | inactive |
| CC(=O)[CH-]C(=O)c1ccccc1.CC(=O)[CH-]C(=O)c1ccccc1.CC(=O)[CH-]C(=O)c1ccccc1.[Nd+3].[OH3+] | inactive |
| Cc1cc(Nc2cc(N3CCN(C)CC3)nc(/C=C/c3ccccc3)n2)n[nH]1 | inactive |
| CCCCCCCc1n(Cc2ccc3ccccc3c2)c2ccccc2[n+]1Cc1ccc2ccccc2c1 | active |
| Cc1cc(C)c(-c2c(N)cc(Br)cc2Br)c(N)c1 | inactive |
| CO[C@H]1CC(O[C@@H]2/C(C)=C/C[C@@H]3C[C@@H](C[C@]4(CC[C@H](C)[C@@H](C5CCCCC5)O4)O3)OC(=O)[C@@H]3C=C(C)/C(=N/O)[C@H]4OC/C(=C\C=C\[C@@H]2C)[C@]43O)O[C@@H](C)C1O (some centres not stated) | inactive |
| Cc1cc(-c2cc(O)ccc2Cl)cc2nnc(Nc3ccc(OCCN4CCCC4)cc3)nc12 | inactive |
| CCCCCCCC/C=C/CCCCCCCC1=NC(C)(C)CN1CCO | inactive |
| Oc1c(Cl)cc(Cl)c2ccc(Cn3cc(-c4ccc(C(F)(F)F)cc4)nn3)nc12 | inactive |
| Cc1cc(Nc2nc(N[C@@H](C)c3ncc(F)cn3)ncc2Cl)n[nH]1 | inactive |
| COC(=O)c1oc2c(C(=O)/C=C/c3ccc(OC)cc3)c(OCCN(C)C)ccc2c1C | inactive |

----------
The entries below are paired with their reported TGI.
test system: NCI-H460 lung; experiment: NCI tumour cell line growth inhibition, 48 h

| molecule | TGI |
| --- | --- |
| CCCSc1ccc2[nH]c(N3C(=O)/C(=C/c4ccc(SC)cc4)N=C3c3ccccc3)cc2c1 | > 50 µM |
| CCOP(=O)(OCC)C(NC(=O)C(C(F)(F)F)C(F)(F)F)c1ccccc1 (stereo not drawn) | > 100 µM |
| O=C(O)C1[O][Sb][O]C(C(=O)O)C1O (stereo not drawn) | > 100 µM |

----------
tested on: KM12 colon; assay: NCI tumour cell line growth inhibition, 48 h
test.readout: TGI

| compound | test.result |
| --- | --- |
| Fc1ccc2c3c([nH]c2c1)CCN(Cc1ccccc1)C3 | 29 µM |
| CCN(CC)CCCC(C)Nc1c2cc(OC)cc(C)c2nc2c(C)c(Cl)ccc12 (stereo unspecified) | 2.99 µM |
| CC1=CC[C@@]2(C)CC[C@](O)(C(C)C)C2C(OC(=O)c2ccccc2)C1 (stereo partly specified) | 40.3 µM |
| COc1cc(C2(c3ncc[nH]3)SSSCC2O)ccc1O (stereo unspecified) | > 100 µM |
| NS(=O)(=O)c1cc(C(=O)O)c(O)c2ccccc12 | > 100 µM |
| CC(C)COc1nc2c(c(=O)n(C)c(=O)n2C)n1C | > 100 µM |
| COc1ccc(OC)c2c1C=CC(Br)=CC2 | 0.85 µM |
| CC1NC(=O)C2=C1C(=O)NC(=O)C2 (stereo unspecified) | > 100 µM |
| C/C(=C(\c1ccc(OCCN2CCCCCC2)cc1)c1ccc(OC(=O)c2ccccc2)cc1)c1ccc(Cl)cc1 | 8.72 µM |
| CCCCCCCCCC[C@H](O)[C@H](O)CC[C@@H](O)[C@H]1CC[C@@H]([C@H]2CC[C@H](CCCCCCC[C@@H](O)CC3=C[C@H](C)OC3=O)O2)O1 | > 100 µM |
| CC(C)(Cl)C(Br)CCC(Br)(CCl)C(Cl)CBr (stereo unspecified) | > 10 µM |
| Cc1c(CCCl)c(N=P(c2ccccc2)(c2ccccc2)c2ccccc2)n2c(nc3ccccc32)c1C#N | > 10 µM |
| O=[N+]([O-])c1ccc(-n2nc3ccc4c(no[n+]4[O-])c3n2)cc1 | > 100 µM |
| CC(=O)C1=C(O)C=C2Oc3c(C(=O)/C=C/c4cc(Cl)cc(Cl)c4)c(O)c(C)c(O)c3[C@]2(C)C1=O | 1.76 µM |
| O=C(CSCC(=O)N/N=C\c1cccc([N+](=O)[O-])c1)N/N=C\c1cccc([N+](=O)[O-])c1 | > 100 µM |
| COc1cc(/C=N/N=C(\N)NO)c(Cl)cc1O | > 100 µM |
| CCc1nc2ccc(N=Nc3c(O)ccc4ccccc34)cc2[nH]1 | 31.9 µM |
| COc1ccc(N=NC(=O)NC(CC(C)C)C(=O)NCC(=O)O)cc1 (stereo unspecified) | > 100 µM |
| Oc1c(Cl)cc(Cl)c2ccc(Cn3cc(-c4ccc(C(F)(F)F)cc4)nn3)nc12 | 26.6 µM |
| Nc1ncnc2c1ncn2C1CCC(CP(=O)(O)O)C1 (stereo unspecified) | > 100 µM |
| CCOc1ccn(-c2ccc(F)cc2)c(=O)c1C(=O)Nc1ccc(Oc2ccnc(N)c2Cl)c(F)c1 | > 100 µM |
